Data provenance is ChEMBL document CHEMBL4813921.

test system: U2OS; test: Antiproliferative activity against human U2OS cells assessed as reduction in cell viability at 10 uM measured after 1 to 5 days by MTT assay; type: functional; conditions: time 1-5 day
Rule: inhibition at 10 µM of 20% or more gives rule met; anything lower gives rule not met.

                               entry_smiles  assigned_class
0  CCC(=O)Nc1cccc(Oc2nc(Nc3ccc(N4CCCCC4)cc3OC)ncc2Cl)c1    rule not met
1  CCC(=O)Nc1cccc(Oc2nc(Nc3ccc(N4CCC(OC)CC4)cc3OC)ncc2Cl)c1    rule not met
2  Cc1nc(Nc2cnn(C3CCNCC3)c2)nc2c1N(C)C(=O)c1cc3ccccc3cc1N2C        rule met
3  CCC(=O)Nc1cccc(Oc2nc(Nc3ccc(N4CCC(C)CC4)cc3OC)ncc2Cl)c1        rule met
4  CCCN(CCC)c1ccc(Nc2ncc(Cl)c(Oc3cccc(NC(=O)CC)c3)n2)cc1        rule met

* * *

test system: U2OS; assay: Antiproliferative activity against human U2OS cells assessed as reduction in cell viability at 10 uM measured after 1 to 5 days by MTT assay; type: functional; conditions: time 1-5 day
Rule: inhibition at 10 µM of 40% or more gives Satisfied; anything lower gives Not satisfied.

                               entry_smiles  assigned_class
0  CCC(=O)Nc1cccc(Oc2nc(Nc3ccc(N4CCN(C)CC4)cc3)ncc2Cl)c1       Satisfied
1  CCCN(CCC)c1ccc(Nc2ncc(Cl)c(Oc3cccc(NC(=O)CC)c3)n2)c(OC)c1   Not satisfied
2  CCC(=O)Nc1cccc(Oc2nc(Nc3ccc(N(CC)CC)cc3OC)ncc2Cl)c1   Not satisfied
3  CCC(=O)Nc1cccc(Oc2nc(Nc3ccc(N4CCCCC4)cc3)ncc2Cl)c1       Satisfied
4  CCC(=O)Nc1cccc(Oc2nc(Nc3ccc(N4CCOCC4)cc3)ncc2Cl)c1       Satisfied
5  CCC(=O)Nc1cccc(Oc2nc(Nc3ccc(N(CC)CC)cc3)ncc2Cl)c1   Not satisfied
6  CCC(=O)Nc1cccc(Oc2nc(Nc3ccc(N4CCCC4)cc3)ncc2Cl)c1   Not satisfied
7  CCC(=O)Nc1cccc(Oc2ccnc(Nc3ccc(N4CCN(C)CC4)cc3)n2)c1   Not satisfied
8  CCC(=O)Nc1cccc(Oc2nc(Nc3ccc(N(C)C)cc3OC)ncc2Cl)c1   Not satisfied
9  CCC(=O)Nc1cccc(Oc2nc(Nc3ccc(N(C)C)cc3)ncc2Cl)c1       Satisfied
